assay-protocol: chemical genetic growth profiling, strain panel (AID 1159580);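 note: tested at 20 µM; growth read once vehicle control cultures reached saturation at 30 °C; 1 = growth at the plate median or of vehicle wells; lower values mean less growth of the strain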
conditions-used: S. cerevisiae deletion strains, growth OD, locus YDL214C, strain PRR2
Out of some 5,500 compounds screened, about 2,000 (36%) were called active. Inconclusive results (about 18%) are left out. Cut-off read from the data, not from the text of the source: active = normalized growth mostly below about 0.91 (no sharp cut-off); inconclusive = no clear call, values can overlap the other calls; inactive = mostly above about 0.92. This is one part of the list.
Assign a class; possible classes are active, inactive

## Input For FC(F)(F)c1cccc(NC(=S)Nc2csc(C(F)(F)F)c2-c2ccccc2)c1 , which call appears in the assay record?
## Output inactive

## Input For CSc1cc(-c2ccncc2)nc(-c2cccs2)c1 , which call appears in the assay record?
## Output inactive

## Input For Cc1cccc(Cl)c1/C=N\NC(N)=S , which call appears in the assay record?
## Output inactive

Next:
## Input For CC(=O)Nc1ccc([N+](=O)[O-])cc1[N+](=O)[O-] , which call appears in the assay record?
## Output active

## Input For NC(=Nc1ccc(F)cc1)SCc1c(Cl)cccc1Cl , which call appears in the assay record?
## Output inactive

## Input For Fc1cccc(Cl)c1CSc1nncn1-c1ccc(OCc2ccccc2)cc1 , which call appears in the assay record?
## Output inactive

## Input For CC(=O)c1sc(SCCS(=O)(=O)c2ccc(C)cc2)c2c1CC(C)(C)CC2=O , which call appears in the assay record?
## Output inactive

* * *

assay-protocol: chemical genetic growth profiling, strain panel (AID 1159580)
conditions-used: S. cerevisiae deletion strains, growth OD, locus YHR129C, strain ARP1, active compounds read low
In all, about 5,500 compounds went through this assay and about 2,000 (36%) were called active. About 18% were inconclusive and are not listed. The list shows a part of the results.
assay-metric: normalized growth
Give a plain numeric answer without units written out.

Answered examples (5):
## Input Looking for the measured normalized growth of C=CC(C)(O)CC/C=C(\C)CCC=C(C)C (stereo unspecified) , can you help?
## Output 0.939

## Input Looking for the measured normalized growth of O=[N+]([O-])c1cc([As](=O)(O)O)ccc1O , can you help?
## Output 0.999

## Input Looking for the measured normalized growth of CC(=O)O[C@H]1C[C@@H](OC(C)=O)C(C)(C)C2C[C@@H](OC(C)=O)[C@@]3(C)C4=CC(=O)O[C@@H](c5ccoc5)[C@]4(C)CCC3[C@]21C (stereo partly specified) , can you help?
## Output 1.01

## Input Looking for the measured normalized growth of O=C(O)c1cccnc1Nc1cccc(C(F)(F)F)c1 , can you help?
## Output 0.953

## Input Looking for the measured normalized growth of C=C[C@](C)(O)CCC=C(C)C , can you help?
## Output 1.02

Next:
## Input Looking for the measured normalized growth of CNc1ccccc1C(=O)O , can you help?
## Output 1.01

* * *

normalized growth values for the compounds below.
assay-protocol: chemical genetic growth profiling, strain panel (AID 1159580)
conditions-used: S. cerevisiae deletion strains, growth OD, locus YBR229C, strain ROT2, active compounds read low
The campaign covered roughly 5,500 compounds. About 2,000 (36%) were called active. Roughly 18% stayed inconclusive and do not appear here. The list shows a part of the results.
Give a plain numeric answer without units written out.

Answered examples (5):
## Input Looking for the measured normalized growth of Oc1c(Cl)cc(Cl)c2cccnc12 , can you help?
## Output 0.0477

## Input Looking for the measured normalized growth of CC(=O)O[C@@H]1C[C@@]2(C)[C@H](c3ccoc3)C[C@H]3O[C@]32[C@]2(C)C(=O)C(O)=C3C(C)(C)C(=O)C=C[C@]3(C)C12 (stereo partly drawn) , can you help?
## Output 0.927

## Input Looking for the measured normalized growth of CCOc1ccc(/C=C(\C)[N+](=O)[O-])cc1OC , can you help?
## Output 0.25

## Input Looking for the measured normalized growth of OC(CNCCc1cccs1)COc1ccccc1 (stereo not drawn) , can you help?
## Output 0.987

## Input Looking for the measured normalized growth of O=[N+]([O-])c1ccc(SC2=NCCN2)c(Cl)c1 , can you help?
## Output 1

Next:
## Input Looking for the measured normalized growth of CC1(C)C(=O)C=C[C@@]2(C)C1=C(O)C(=O)[C@]1(C)C2CC[C@@]2(C)[C@H](c3ccoc3)C[C@H]3O[C@]321 (stereo partly drawn) , can you help?
## Output 0.923

## Input Looking for the measured normalized growth of CC1(C)C(=O)C=CC2(C)C3CCC4(C)C(c5ccoc5)CC5OC54C3C(O)CC12 (stereo not drawn) , can you help?
## Output 0.995

## Input Looking for the measured normalized growth of CC1C(c2ccccc2)OCCN1CN1C(=O)c2ccccc2C1=O (stereo not drawn) , can you help?
## Output 0.985

## Input Looking for the measured normalized growth of O=C(NCCSCc1ccc(Cl)cc1)c1ccc(Cl)cc1 , can you help?
## Output 0.919

## Input Looking for the measured normalized growth of Oc1c(I)cc(I)c2cccnc12 , can you help?
## Output 0.0677

## Input Looking for the measured normalized growth of c1ccc2c(c1)cc1ccc3cccc4ccc2c1c34 , can you help?
## Output 1.02

## Input Looking for the measured normalized growth of O=C(NC(=S)NCc1ccncc1)c1ccccc1 , can you help?
## Output 1.01

* * *

assay-protocol: chemical genetic growth profiling, strain panel (AID 1159580);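 note: tested at 20 µM; growth read once vehicle control cultures reached saturation at 30 °C; 1 = growth at the plate median or of vehicle wells; lower values mean less growth of the strain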
conditions-used: S. cerevisiae deletion strains, growth OD, locus YIL066C, strain RNR3, active compounds read low
The campaign covered roughly 5,500 compounds. About 2,000 (36%) were called active. Not shown: some 18% with an inconclusive outcome. The list shows a part of the results.
normalized growth values for the compounds below.
Give a plain numeric answer without units written out.

Answered examples (3):
## Input Looking for the measured normalized growth of O=[N+]([O-])c1cc([As](=O)(O)O)ccc1O , can you help?
## Output 1.04

## Input Looking for the measured normalized growth of CC(=O)Nc1cc([As](=O)(O)O)ccc1O , can you help?
## Output 0.998

## Input Looking for the measured normalized growth of O=[N+]([O-])c1cc(O)c(O)c([N+](=O)[O-])c1 , can you help?
## Output 1.01

Next:
## Input Looking for the measured normalized growth of CN[C@H](CC(=O)O)C(=O)O , can you help?
## Output 1

## Input Looking for the measured normalized growth of C1CNCCN1 , can you help?
## Output 1.01

## Input Looking for the measured normalized growth of CCCCC(CC)CN1CN(CC(CC)CCCC)CC(C)(N)C1 (configuration not stated) , can you help?
## Output 0.45

## Input Looking for the measured normalized growth of O=C1C=CC2=C3c4cc(O)c(O)cc4C[C@@]3(O)COC2=C1 , can you help?
## Output 1.01

* * *

assay-protocol: chemical genetic growth profiling, strain panel (AID 1159580);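 note: tested at 20 µM; growth read once vehicle control cultures reached saturation at 30 °C; 1 = growth at the plate median or of vehicle wells; lower values mean less growth of the strain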
conditions-used: S. cerevisiae deletion strains, growth OD, locus YBR229C, strain ROT2
The whole screen tested about 5,500 compounds, of which about 2,000 (36%) were called active. Inconclusive results (about 18%) are left out. Rule as the data show it: active = normalized growth mostly below about 0.91 (no sharp cut-off); inconclusive = no clear call, values can overlap the other calls; inactive = mostly above about 0.92. The list shows a part of the results.
Assign a class; possible classes are active, inactive

These solved cases illustrate the format of a correct answer.
## Input For CC(C)=CCC[C@](C)(O)C1CC=C(C)CC1 (some centres not stated) , which call appears in the assay record?
## Output inactive

## Input For O=C(Nc1ccc(C(F)(F)F)cc1)Nc1ccccc1C(=O)O , which call appears in the assay record?
## Output inactive

## Input For Clc1cc(Cl)cc(-n2cccc2)c1 , which call appears in the assay record?
## Output inactive

## Input For C=C[C@](C)(O)CCC=C(C)C , which call appears in the assay record?
## Output inactive

## Input For N#Cc1c(N)sc2c1CCCCC2 , which call appears in the assay record?
## Output inactive

## Input For Clc1cc(Cl)c(Cl)c(-n2cccc2)c1Cl , which call appears in the assay record?
## Output active

# evaluate next
## Input For Nc1nc2ncc(C(=O)O)nc2c(=O)[nH]1 , which call appears in the assay record?
## Output inactive

* * *

assay-protocol: chemical genetic growth profiling, strain panel (AID 1159580);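 note: tested at 20 µM; growth read once vehicle control cultures reached saturation at 30 °C; 1 = growth at the plate median or of vehicle wells; lower values mean less growth of the strain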
conditions-used: S. cerevisiae deletion strains, growth OD, locus YOR070C, strain gyp1
Hit rate of the full screen: of about 5,500 compounds, about 2,000 (36%) were called active. About 18% were inconclusive and are not listed. Cut-off read from the data, not from the text of the source: active = normalized growth mostly below about 0.91 (no sharp cut-off); inconclusive = no clear call, values can overlap the other calls; inactive = mostly above about 0.92. The list shows a part of the results.
Assign a class; possible classes are active, inactive

## Input For COc1ccc(C(Cl)=C(c2ccc(OC)cc2)c2ccc(OC)cc2)cc1 , which call appears in the assay record?
## Output inactive

## Input For Oc1c(I)cc(Cl)c2cccnc12 , which call appears in the assay record?
## Output active

## Input For O=C(O[C@@H]1Cc2c(O)cc(O)cc2O[C@@H]1c1cc(O)c(O)c(O)c1-c1c([C@H]2Oc3cc(O)cc(O)c3C[C@H]2O)cc(O)c(O)c1O)c1cc(O)c(O)c(O)c1 , which call appears in the assay record?
## Output inactive

Next:
## Input For Oc1c(Br)cc(Br)c2cccnc12 , which call appears in the assay record?
## Output active

## Input For Oc1ccc(Cl)c2cccnc12 , which call appears in the assay record?
## Output active
